# TESTED TARGET: CyclinB1/CDK1 (Homo sapiens)
# Construct: purchased Eurofins, discovery 14-450
# TEST NAME: Fluorescence Polarization (FP) competitive binding assay, Cyclin B1/Cdk1;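 further: fluorescence polarization read after equilibration at room temperature, with IC50 taken from serially diluted dose-response curves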
# EXPERIMENTAL SETUP: 10 nM Cyclin B1/Cdk1, 2 nM FAM probe; average of 2-3 independent experiments; read-out: Cyclin B FP IC50
*1 amine or outer side, *2 acyl side, *3 side chain or, on linkers, in order; H or OH if unused. Where a SMILES comes first, the peptide text is derived from it. Bridges are numbered along the chain shown (N, C = ends). [ ]: non-standard residue; d: D form. The star is where a group is joined. X121 = C[C@@H]1CN(c2ccc(-c3ccc(Cl)cc3C[C@@H](C(=O)[*:2])N(C)[*:1])cc2)CCO1; X75 = CC(C)C(=O)N1C2C=C(c3ccc(Cl)cc3C[C@@H](C(=O)[*:2])N(C)[*:1])CC1COC2; X191 = CN([C@@H](Cc1cc(Cl)ccc1-c1ccc(N2CCOCC2)c(F)c1F)C(=O)[*:2])[*:1]; X130 = CN([C@@H](Cc1cc(F)ccc1-c1ccn(S(C)(=O)=O)c1)C(=O)[*:2])[*:1]; X137 = CN([C@@H](Cc1cc(F)ccc1-c1cnn(S(C)(=O)=O)c1)C(=O)[*:2])[*:1]; X189 = CN([C@@H](Cc1cc(Cl)ccc1-c1ccc2scnc2c1)C(=O)[*:2])[*:1]; NMehhhLys(Me) = CN([C@@H](CCCCCCCN(C)[*:3])C(=O)[*:2])[*:1]; X206 = CN([C@@H](Cc1cc(Cl)cnc1Cc1cnn(C)c1)C(=O)[*:2])[*:1]; X104 = CN([C@@H](Cc1cc(Cl)ccc1C1=CCOCC1)C(=O)[*:2])[*:1]; NMe(hhhLys) = CN([C@@H](CCCCCCCN[*:3])C(=O)[*:2])[*:1]; Oxane2carbonyl(2R-CF3) = O=C([C@@]1(C(F)(F)F)CCCCO1)*; cBuCO(3,3-F2-1-CF3) = O=C(C1(C(F)(F)F)CC(F)(F)C1)*; Pro(trans-4-F) = O=C(O)[C@@H]1C[C@@H](F)CN1; Gly(cPr) = N[C@H](C(=O)O)C1CC1
Could you please report measured pIC50 for the items listed next?
pIC50 is a log-scale quantity: -log10 of the concentration expressed in molar.

Tell me the measured pIC50 of CC(C)C[C@@H]1NC(=O)[C@@H](N(C)C(=O)[C@@H](NC(=O)[C@@H]2C[C@@H](F)CN2C(=O)C2(C(F)(F)F)CC(F)(F)C2)C2CC2)CCCCCCCNC(=O)[C@H](Cc2cc(Cl)ccc2C2=CC3COCC(C2)N3C(=O)C(C)C)N(C)C1=O (stereo partly drawn) [Example 194] ({cBuCO(3,3-F2-1-CF3)}-[Pro(trans-4-F)][Gly(cPr)][NMe(hhhLys)]L[X75]; lactam 3-C) , please.
7.70

Tell me the measured pIC50 of CC(C)C[C@@H]1NC(=O)[C@@H](N(C)C(=O)[C@@H](NC(=O)[C@@H]2C[C@@H](F)CN2C(=O)C2(C(F)(F)F)CC(F)(F)C2)C2CC2)CCCCCCCN(C)C(=O)[C@H](Cc2cc(F)ccc2-c2cnn(S(C)(=O)=O)c2)N(C)C1=O [Example 95] ({cBuCO(3,3-F2-1-CF3)}-[Pro(trans-4-F)][Gly(cPr)][NMehhhLys(Me)]L[X137]; lactam 3-C) , please.
7.70

Tell me the measured pIC50 of CC(C)C[C@@H]1NC(=O)[C@@H](N(C)C(=O)[C@@H](NC(=O)[C@@H]2C[C@@H](F)CN2C(=O)[C@@]2(C(F)(F)F)CCCCO2)C2CC2)CCCCCCCN(C)C(=O)[C@H](Cc2cc(Cl)cnc2Cc2cnn(C)c2)N(C)C1=O [Example 332] ({Oxane2carbonyl(2R-CF3)}-[Pro(trans-4-F)][Gly(cPr)][NMehhhLys(Me)]L[X206]; lactam 3-C) , please.
7.70

Tell me the measured pIC50 of CC(C)C[C@@H]1NC(=O)[C@@H](N(C)C(=O)[C@@H](NC(=O)[C@@H]2C[C@@H](F)CN2C(=O)C2(C(F)(F)F)CC(F)(F)C2)C2CC2)CCCCCCCN(C)C(=O)[C@H](Cc2cc(Cl)ccc2-c2ccc(N3CCOCC3)c(F)c2F)N(C)C1=O [Example 386] ({cBuCO(3,3-F2-1-CF3)}-[Pro(trans-4-F)][Gly(cPr)][NMehhhLys(Me)]L[X191]; lactam 3-C) , please.
7.70

Tell me the measured pIC50 of CC(C)C[C@@H]1NC(=O)[C@@H](N(C)C(=O)[C@@H](NC(=O)[C@@H]2C[C@@H](F)CN2C(=O)C2(C(F)(F)F)CC(F)(F)C2)C2CC2)CCCCCCCN(C)C(=O)[C@H](Cc2cc(F)ccc2-c2ccn(S(C)(=O)=O)c2)N(C)C1=O [Example 306] ({cBuCO(3,3-F2-1-CF3)}-[Pro(trans-4-F)][Gly(cPr)][NMehhhLys(Me)]L[X130]; lactam 3-C) , please.
7.70

Tell me the measured pIC50 of CC(C)C[C@@H]1NC(=O)[C@@H](N(C)C(=O)[C@@H](NC(=O)[C@@H]2C[C@@H](F)CN2C(=O)C2(C(F)(F)F)CC(F)(F)C2)C2CC2)CCCCCCCN(C)C(=O)[C@H](Cc2cc(Cl)ccc2-c2ccc3scnc3c2)N(C)C1=O [Example 169] ({cBuCO(3,3-F2-1-CF3)}-[Pro(trans-4-F)][Gly(cPr)][NMehhhLys(Me)]L[X189]; lactam 3-C) , please.
7.70

Tell me the measured pIC50 of CC(C)C[C@@H]1NC(=O)[C@@H](N(C)C(=O)[C@@H](NC(=O)[C@@H]2C[C@@H](F)CN2C(=O)C2(C(F)(F)F)CC(F)(F)C2)C2CC2)CCCCCCCN(C)C(=O)[C@H](Cc2cc(Cl)ccc2C2=CCOCC2)N(C)C1=O [Example 51] ({cBuCO(3,3-F2-1-CF3)}-[Pro(trans-4-F)][Gly(cPr)][NMehhhLys(Me)]L[X104]; lactam 3-C) , please.
7.70

Tell me the measured pIC50 of CC(C)C[C@@H]1NC(=O)[C@@H](N(C)C(=O)[C@@H](NC(=O)[C@@H]2C[C@@H](F)CN2C(=O)C2(C(F)(F)F)CC(F)(F)C2)C2CC2)CC=CCCCCN(C)C(=O)[C@H](Cc2cc(F)ccc2C2=CCC(O)CC2)N(C)C1=O (stereo partly drawn) , please.
7.70

Tell me the measured pIC50 of CC(C)C[C@@H]1NC(=O)[C@@H](NC(=O)[C@@H](NC(=O)[C@@H]2C[C@@H](F)CN2C(=O)C2(C(F)(F)F)CC(F)(F)C2)C2CC2)CCCCCCCNC(=O)[C@H](Cc2cc(Cl)ccc2Cl)N(C)C1=O , please.
7.70

Tell me the measured pIC50 of CC(=O)N1CC=C(c2ccc(Cl)cc2C[C@H]2C(=O)NCCCC=CCC[C@H](N(C)C(=O)[C@@H](NC(=O)[C@@H]3C[C@@H](F)CN3C(=O)C3(C(F)(F)F)CC(F)(F)C3)C3CC3)C(=O)N[C@@H](CC(C)C)C(=O)N2C)CC1 , please.
7.70

Tell me the measured pIC50 of CC(C)C[C@@H]1NC(=O)[C@@H](N(C)C(=O)[C@@H](NC(=O)[C@@H]2C[C@@H](F)CN2C(=O)C2(C(F)(F)F)CCC2)C2CC2)CC=CCCCCNC(=O)[C@H](Cc2cc(F)cnc2OC2CC2)N(C)C1=O , please.
7.70

Tell me the measured pIC50 of CC(C)C[C@@H]1NC(=O)[C@@H](N(C)C(=O)[C@@H](NC(=O)[C@@H]2C[C@@H](F)CN2C(=O)C2(C(F)(F)F)CC(F)(F)C2)C2CC2)CCCCCCCN(C)C(=O)[C@H](Cc2cc(Cl)ccc2-c2ccc(N3CCO[C@H](C)C3)cc2)N(C)C1=O [Example 414] ({cBuCO(3,3-F2-1-CF3)}-[Pro(trans-4-F)][Gly(cPr)][NMehhhLys(Me)]L[X121]; lactam 3-C) , please.
7.70

* * *

# System: OVCAR3 cells
# TEST NAME: MTT proliferation assay, OVCAR3;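 further: compound given as an 8- or 10-point series, one day after plating, with exposure covering roughly 3-4 cell doublings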
# Type: cell-based
# EXPERIMENTAL SETUP: 5 days compound exposure, 1:3 serial dilution starting at 10 μM
PROPERTY NAME: GI50 (nM)
Numeric only. Scale: nM

Short answer please: GI50, OVCAR3 cells, entry CC(C)C[C@@H]1NC(=O)[C@@H](N(C)C(=O)[C@@H](NC(=O)[C@@H]2C[C@@H](F)CN2C(=O)C2(C(F)(F)F)CCC2)C2CC2)CC=CCCCCN(C)C(=O)[C@H](Cc2cc(Cl)ccc2-c2cnn(C)c2)N(C)C1=O
110
